Assay Explanation: Hemolytic activity in sheep red blood cell assessed as hemolysis at 1 to 128 ug/ml incubated for 1 hrs relative to control
Assay type: toxicity, cell-based, Ovis aries, Erythrocyte
Particulars: sheep red blood cells (erythrocytes), at 1 to 128 µg/mL, dose 1-128 µg/ml, read-out: Activity
Where a SMILES comes first, the peptide text is derived from it. [ ]: non-standard residue; d: D form. The star is where a group is joined. ξ: configuration not given here. Hexanoyl(4ξ-Me) = CCC(C)CCC(=O)*; dOrn = NCCC[C@@H](N)C(=O)O; Orn = NCCC[C@H](N)C(=O)O
Reported Property: hemolysis at 1 h

Quick one: hemolysis at 1 h of CCC(C)CCC(=O)N[C@H](CC(N)=O)C(=O)N[C@H](Cc1ccc(O)cc1)C(=O)N[C@H](Cc1c[nH]c2ccccc12)C(=O)N[C@H](CCCN)C(=O)N[C@@H](CCCN)C(=O)NCC(=O)N[C@H](CCCN)C(=O)N[C@@H](Cc1c[nH]c2ccccc12)C(=O)N[C@H](C(N)=O)[C@@H](C)O (stereo partly specified) ({Hexanoyl(4ξ-Me)}-[dN][dY][dW][dOrn][Orn]G[dOrn]WT-NH2) ?
< 0.1%

---

Tested on: Klebsiella pneumoniae
Assay Explanation: Antibacterial activity Klebsiella pneumoniae ATCC 13883 assessed as inhibition of visible bacterial growth incubated for 18 hrs by microbroth dilution assay
Type: functional
Where a SMILES comes first, the peptide text is derived from it. [ ]: non-standard residue; d: D form. The star is where a group is joined. ξ: configuration not given here. Hexanoyl(4ξ-Me) = CCC(C)CCC(=O)*; dOrn = NCCC[C@@H](N)C(=O)O; Orn = NCCC[C@H](N)C(=O)O
Form field: MIC (one value per entry).
Response body: numeric value in µg/mL, unit text excluded.

Quick one: MIC of CCC(C)CCC(=O)N[C@H](CC(N)=O)C(=O)N[C@H](Cc1ccc(O)cc1)C(=O)N[C@H](Cc1c[nH]c2ccccc12)C(=O)N[C@H](CCCN)C(=O)N[C@@H](CCCN)C(=O)NCC(=O)N[C@H](CCCN)C(=O)N[C@@H](Cc1c[nH]c2ccccc12)C(=O)N[C@@H](CO)C(=O)N[C@H](C(=O)NCC(N)=O)[C@@H](C)CC (some centres not stated) ({Hexanoyl(4ξ-Me)}-[dN][dY][dW][dOrn][Orn]G[dOrn]WSIG-NH2) ?
4

Could you now consider this next compound?
Quick one: MIC of CCC(C)CCC(=O)N[C@H](CC(N)=O)C(=O)N[C@H](Cc1ccc(O)cc1)C(=O)N[C@H](Cc1c[nH]c2ccccc12)C(=O)N[C@H](CCCN)C(=O)N[C@@H](CCCN)C(=O)NCC(=O)N[C@H](CCCN)C(=O)N[C@@H](Cc1c[nH]c2ccccc12)C(=O)N[C@H](C(=O)N[C@H](C(=O)NCC(=O)N[C@@H](C)C(N)=O)[C@@H](C)CC)[C@@H](C)O (some centres not stated) ({Hexanoyl(4ξ-Me)}-[dN][dY][dW][dOrn][Orn]G[dOrn]WTIGA-NH2) ?
8

---

Tested on: Klebsiella pneumoniae
Assay Explanation: Antibacterial activity Klebsiella pneumoniae ATCC 13883 assessed as inhibition of visible bacterial growth incubated for 18 hrs by microbroth dilution assay
Type: functional
Where a SMILES comes first, the peptide text is derived from it. [ ]: non-standard residue; d: D form. The star is where a group is joined. ξ: configuration not given here. Hexanoyl(4ξ-Me) = CCC(C)CCC(=O)*; dOrn = NCCC[C@@H](N)C(=O)O; Orn = NCCC[C@H](N)C(=O)O
Reported Property: MIC

Quick one: MIC of CCC(C)CCC(=O)N[C@H](CC(N)=O)C(=O)N[C@H](Cc1ccc(O)cc1)C(=O)N[C@H](Cc1c[nH]c2ccccc12)C(=O)N[C@H](CCCN)C(=O)N[C@@H](CCCN)C(=O)NCC(=O)N[C@H](CCCN)C(=O)N[C@@H](C)C(=O)N[C@H](C(=O)N[C@H](C(=O)NCC(=O)N[C@@H](CO)C(N)=O)[C@@H](C)CC)[C@@H](C)O (some centres not stated) ({Hexanoyl(4ξ-Me)}-[dN][dY][dW][dOrn][Orn]G[dOrn]ATIGS-NH2) ?
> 32 µg/mL

Could you now consider this next molecule?
Quick one: MIC of CCC(C)CCC(=O)N[C@H](CC(N)=O)C(=O)N[C@H](Cc1ccc(O)cc1)C(=O)N[C@H](Cc1c[nH]c2ccccc12)C(=O)N[C@H](CCCN)C(=O)N[C@@H](CCCN)C(=O)N[C@@H](C)C(=O)N[C@H](CCCN)C(=O)N[C@@H](Cc1c[nH]c2ccccc12)C(=O)N[C@H](C(=O)N[C@H](C(=O)NCC(=O)N[C@@H](CO)C(N)=O)[C@@H](C)CC)[C@@H](C)O (some centres not stated) ({Hexanoyl(4ξ-Me)}-[dN][dY][dW][dOrn][Orn]A[dOrn]WTIGS-NH2) ?
> 32 µg/mL
